Sourced from ChEMBL document CHEMBL4706624

Tested on: Mycobacteroides chelonae
Procedure Summary: Antimycobacterial activity against Mycobacterium chelonae ATCC 35752 by broth microdilution method
Type: functional
Endpoint: MIC

Example compounds with recorded MIC:
COc1ccc(-c2nc(Nc3ccc(-c4nc5cc(Cl)ccc5[nH]4)cc3)c3ccccc3n2)cc1OC	> 64 µg/mL
O=C(Nc1ccc2nc(-c3cnc4c(Cl)cccc4c3)[nH]c2c1)c1ccc(Nc2nc(-c3ccccc3)nc3ccccc23)cc1	> 64 µg/mL
c1ccc(-c2nc(Nc3ccc(-c4nc5ccccc5[nH]4)cc3)c3ccccc3n2)cc1	> 64 µg/mL
O=[N+]([O-])c1ccc2[nH]c(-c3ccc(Nc4nc(-c5ccccc5)nc5ccccc45)cc3)nc2c1	> 64 µg/mL
O=C(Nc1ccc2nc(C(F)(F)F)[nH]c2c1)c1ccc(Nc2nc(-c3ccccc3)nc3ccccc23)cc1	> 64 µg/mL

What measured MIC is associated with `O=C(Nc1ccc2nc(-c3ccc4ccccc4c3)[nH]c2c1)c1ccc(Nc2nc(-c3ccccc3)nc3ccccc23)cc1` on Mycobacteroides chelonae?
> 64 µg/mL

What measured MIC is associated with `Clc1ccc2[nH]c(-c3ccc(Nc4nc(-c5ccccc5)nc5ccccc45)cc3)nc2c1` on Mycobacteroides chelonae?
32 µg/mL

What measured MIC is associated with `Fc1ccc2[nH]c(-c3ccc(Nc4nc(-c5ccccc5)nc5ccccc45)cc3)nc2c1` on Mycobacteroides chelonae?
32 µg/mL

What measured MIC is associated with `FC(F)(F)c1nc2ccc(Nc3nc(-c4cccs4)nc4ccccc34)cc2[nH]1` on Mycobacteroides chelonae?
> 64 µg/mL

What measured MIC is associated with `COc1ccc(-c2nc(Nc3ccc(-c4nc5cc([N+](=O)[O-])ccc5[nH]4)cc3)c3ccccc3n2)cc1OC` on Mycobacteroides chelonae?
8 µg/mL

What measured MIC is associated with `O=C(Nc1ccc2nc(-c3ccc(Br)cc3F)[nH]c2c1)c1ccc(Nc2nc(-c3ccccc3)nc3ccccc23)cc1` on Mycobacteroides chelonae?
> 64 µg/mL

What measured MIC is associated with `C[C@H]1COc2c(N3CCN(C)CC3)c(F)cc3c(=O)c(C(=O)O)cn1c23.C[C@H]1COc2c(N3CCN(C)CC3)c(F)cc3c(=O)c(C(=O)O)cn1c23.O` on Mycobacteroides chelonae?
0.03 µg/mL

====

System: Staphylococcus aureus
Procedure Summary: Antibacterial activity against methicillin-sensitive Staphylococcus aureus ATCC 29213 measured after 16 to 18 hrs
Format: functional
Measurement Setup: time 16-18 hrs
Strictly below 1 µg/mL in MIC: TRUE. Otherwise: FALSE.

C[C@H]1COc2c(N3CCN(C)CC3)c(F)cc3c(=O)c(C(=O)O)cn1c23.C[C@H]1COc2c(N3CCN(C)CC3)c(F)cc3c(=O)c(C(=O)O)cn1c23.O	TRUE
c1ccc(-c2nc(Nc3ccc(-c4nc5ccccc5[nH]4)cc3)c3ccccc3n2)cc1	FALSE
Clc1ccc(-c2nc(Nc3ccc(-c4nc5ccccc5[nH]4)cc3)c3ccccc3n2)cc1	FALSE
Clc1ccc2[nH]c(-c3ccc(Nc4nc(-c5ccccc5)nc5ccccc45)cc3)nc2c1	FALSE

Below 1 µg/mL on MIC? Entry `Fc1ccc2[nH]c(-c3ccc(Nc4nc(-c5ccc(Cl)cc5)nc5ccccc45)cc3)nc2c1`
FALSE

Below 1 µg/mL on MIC? Entry `C[C@@H](O)[C@H]1C(=O)N2C(C(=O)O)=C(S[C@@H]3CN[C@H](C(=O)N(C)C)C3)[C@H](C)[C@H]12`
TRUE
